Where do these numbers come from? They come from the NIST ThermoML archive (doi:10.1021/je2013878).

// reported activity coefficient per item
experimentalProtocol: activity coefficient (dimensionless); of the first substance listed, at infinite dilution; xn = mol fraction of the nth substance listed
recordedConditions: 313.15 K; 101 kPa; Liquid; Chromatography; x1 = 0
// print number alone

Input: Requested field: activity coefficient. Item: CCC(=O)C(C)=O [2,3-pentanedione] + O
Output: 160

Input: Requested field: activity coefficient. Item: CCCCCC=O [hexanal] + O
Output: 601

Input: Requested field: activity coefficient. Item: CCOC(C)=O [ethyl acetate] + O
Output: 71

Input: Requested field: activity coefficient. Item: C=CC(O)CCCCC (configuration not stated) [1-octen-3-ol] + O
Output: 2160

Input: Requested field: activity coefficient. Item: CC(C)CC=O [3-methylbutanal] + O
Output: 179

Input: Requested field: activity coefficient. Item: C=CC(O)CC (configuration not stated) [1-penten-3-ol] + O
Output: 49

More entries:
Input: Requested field: activity coefficient. Item: O=Cc1ccccc1 [benzaldehyde] + O
Output: 570
